Give Ratio for every item shown.
- Tgt: Serotonin 2 (5-HT2) receptor (Rattus norvegicus) (UniProt P30994+P08909+P14842)
- Sequence (P08909 whole entry, looked up): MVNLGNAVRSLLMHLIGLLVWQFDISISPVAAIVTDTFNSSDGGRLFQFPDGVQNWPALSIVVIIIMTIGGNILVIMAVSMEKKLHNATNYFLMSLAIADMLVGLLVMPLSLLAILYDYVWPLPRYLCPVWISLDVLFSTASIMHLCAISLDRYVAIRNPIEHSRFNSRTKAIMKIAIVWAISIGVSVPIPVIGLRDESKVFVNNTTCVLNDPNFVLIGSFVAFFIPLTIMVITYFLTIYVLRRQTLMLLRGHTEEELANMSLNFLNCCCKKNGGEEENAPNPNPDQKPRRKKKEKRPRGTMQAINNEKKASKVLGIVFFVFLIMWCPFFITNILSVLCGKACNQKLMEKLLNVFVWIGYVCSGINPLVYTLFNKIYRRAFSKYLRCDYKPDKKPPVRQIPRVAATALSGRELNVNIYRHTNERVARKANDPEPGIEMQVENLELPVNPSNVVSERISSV
- Sequence (P14842 whole entry, looked up): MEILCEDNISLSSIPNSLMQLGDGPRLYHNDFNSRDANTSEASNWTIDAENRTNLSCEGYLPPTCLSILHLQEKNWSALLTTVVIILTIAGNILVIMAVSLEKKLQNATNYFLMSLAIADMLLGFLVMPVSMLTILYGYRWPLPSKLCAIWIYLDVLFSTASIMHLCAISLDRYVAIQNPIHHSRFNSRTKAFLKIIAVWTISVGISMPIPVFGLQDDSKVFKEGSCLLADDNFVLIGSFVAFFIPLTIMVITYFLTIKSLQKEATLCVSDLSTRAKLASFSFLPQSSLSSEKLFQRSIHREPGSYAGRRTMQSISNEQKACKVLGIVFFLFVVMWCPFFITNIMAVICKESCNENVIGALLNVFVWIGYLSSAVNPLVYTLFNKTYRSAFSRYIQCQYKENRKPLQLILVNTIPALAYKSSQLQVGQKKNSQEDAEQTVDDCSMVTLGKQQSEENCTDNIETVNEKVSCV
- Sequence (P30994 whole entry, looked up): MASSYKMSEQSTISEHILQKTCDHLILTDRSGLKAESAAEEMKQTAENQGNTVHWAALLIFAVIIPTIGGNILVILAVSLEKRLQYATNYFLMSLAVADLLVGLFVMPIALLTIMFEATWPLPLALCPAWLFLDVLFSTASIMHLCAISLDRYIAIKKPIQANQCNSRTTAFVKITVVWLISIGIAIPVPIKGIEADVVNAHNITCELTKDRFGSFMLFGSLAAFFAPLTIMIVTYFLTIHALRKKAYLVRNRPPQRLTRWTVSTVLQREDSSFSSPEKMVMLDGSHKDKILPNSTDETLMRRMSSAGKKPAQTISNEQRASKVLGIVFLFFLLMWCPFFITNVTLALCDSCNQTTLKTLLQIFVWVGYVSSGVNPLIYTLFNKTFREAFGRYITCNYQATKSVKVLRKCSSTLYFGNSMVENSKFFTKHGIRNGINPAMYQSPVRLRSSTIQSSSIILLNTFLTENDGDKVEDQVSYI
- Experiment description: Selectivity ratio for 5-HT1C compared to 5-HT2 receptors.
- Type: protein assay
Answer field: number only, no words.

Query: Item O=C(NCCN1CCC(C(=O)c2ccc(F)cc2)CC1)c1ccccc1.O=C(O)C(=O)O : provide Ratio
Result: 100

Query: Determine from records and report Ratio for O=C(NCCN1CCC(C(=O)c2ccc(F)cc2)CC1)Nc1ccccc1.O=C(O)C(=O)O
Result: 50

Query: Give the value of Ratio reported for the following: O=C(O)C(=O)O.O=C(c1ccc(F)cc1)C1CCN(CCCCc2ccccc2)CC1
Result: 120

Query: Give the measured Ratio for O=C(O)/C=C\C(=O)O.O=c1[nH]c2ccccc2c(=O)n1CCN1CCC(Cc2ccccc2)CC1
Result: 30

Query: Provide one value: measured Ratio of CN(CCCc1ccccc1)CCn1c(=O)[nH]c2ccccc2c1=O.O=C(O)C(=O)O
Result: 2

Query: Please look at this compound and report its Ratio: CN1CCC(C(=O)c2ccc(F)cc2)CC1
Result: 12
